Reported Ki against Beta-secretase 1 (Homo sapiens, UniProt P56817), gathered from multiple publications, appears below.
Parameter: Ki (nM)

I = CN1C(=N)N[C@](C)(c2sc3c(-c4ccc(-c5cnn(C)c5)cc4F)nccc3c2Cl)CS1(=O)=O
II = CN1C(=N)N[C@](C)(c2sc3c(-c4ccc(-n5cccn5)cc4)cccc3c2F)CS1(=O)=O
III = CN1C[C@@](C)(c2cc(NC(=O)c3cnsn3)ccc2F)NC(=N)C(C)(C)S1(=O)=O
Form: Sort by [Ki] Order [ ascending ] Record the ranking as a list of labels in the requested order.
II, III, I
(II: 37 nM, III: 64 nM, I: 291 nM)

1 = Cc1cc(C#N)cnc1C(=O)Nc1ccc(F)c([C@]2(C)CS(=O)(=O)C3(CCN(C)CC3)C(=N)N2)c1
2 = CN=[S@]1(=O)C[C@@](C)(c2cc(Nc3ncccc3OC)ccc2F)NC(=N)C1(C)C
Could you please tell me which of these two has the higher Ki: 1 or 2 ? Your answer should be the label attached to the chosen record.
1
